Cited source for all entries: ChEMBL document CHEMBL1201862

- System: HT-29
- Assay Info: NCI tumour cell line growth inhibition, 48 h
The source made the active and inactive calls. No stated cut-off is given here; in the data, active = GI50 up to about 1.1 µM and inactive = higher.
Attribute: GI50

Study these solved cases before continuing.
INSERT INTO assay_data (compound, value_observed) VALUES
  ('CCN(CCN(CC)C(=O)NC)C(=O)NC', '> 100 µM (inactive)'),
  ('CCc1ccccc1NC(=O)C(=O)C(C(=O)c1ccc(OC)cc1)c1ccc(OC)cc1 (stereo not given)', '> 100 µM (inactive)'),
  ('CCC(=O)ONC(=O)Cn1ccc([N+](=O)[O-])n1', '> 100 µM (inactive)'),
  ('Cc1c2ccccc2cc2nc3ccccc3n12', '> 10 µM (inactive)');

Form field: reported GI50 of COc1ccc2c(c1)[n+]([O-])c(C(=O)C/C(=N/NC(=O)C[N+](C)(C)C)C(=O)Nc1cccc(C)c1C)c(C)[n+]2[O-]
> 100 µM (inactive)

* * *

- Tested on: SK-MEL-5
- Assay Info: NCI tumour cell line growth inhibition, 48 h
Active and inactive are the calls of the source. Cut-off read from the data, not from the text of the source: active = GI50 up to about 1.1 µM and inactive = higher.
Attribute: GI50

Study these solved cases before continuing.
INSERT INTO results (molecule, value_observed) VALUES
  ('CCCc1c(C(=O)OCC)[nH]c(-c2ccc(-c3[nH]c(C(=O)OCC)c(CCC)c3C(=O)OCC)o2)c1C(=O)OCC', '> 100 µM (inactive)'),
  ('CCOC(=O)C1=C(Nc2ccccc2)OC/C1=N\NC(=O)Cc1ccccc1', '> 50 µM (inactive)'),
  ('Clc1cc2n[se]nc2cc1Cl', '> 100 µM (inactive)'),
  ('OCCN1CCN2C=C(C3CCCC4N(CCO)CCN34)CCC21 (stereo not drawn)', '41.9 µM (inactive)'),
  ('C=C1C(=O)O[C@@H]2/C=C(C)/C=C\[C@@H]3O[C@@]3(C)C[C@@H](O)C12 (stereo partly drawn)', '14.6 µM (inactive)');

Form field: reported GI50 of CCCC(N)C(=O)c1ccccc1 (stereo not drawn)
> 100 µM (inactive)

Form field: reported GI50 of COC(=O)C1=C2CCC(=O)[C@@]2(C)C(OC(C)=O)C=CC1 (stereo partly drawn)
> 100 µM (inactive)

* * *

- System: MDA-MB-435
- Assay Info: NCI tumour cell line growth inhibition, 48 h
The source made the active and inactive calls. No stated cut-off is given here; in the data, active = GI50 up to about 1.1 µM and inactive = higher.
Attribute: GI50

Study these solved cases before continuing.
INSERT INTO results (compound, value_observed) VALUES
  ('CN1COCc2c1ccc1cc3ccc4c(c3nc21)COCN4S(C)(=O)=O', '> 100 µM (inactive)'),
  ('O=C(CCCN1CCC2(CC1)/C(=N/C1CCCCC1)NC(=O)N2c1ccccc1)c1ccc(F)cc1', '20.1 µM (inactive)'),
  ('COC(=O)c1ccc(S)c(S(=O)(=O)Nc2nc(N)n[nH]2)c1', '> 100 µM (inactive)'),
  ('COc1ccc(C2C(C#N)=C(S)N(C3OC(CO)C(O)C(O)C3O)C(C)=C2C(C)=O)cc1 (stereo not given)', '> 100 µM (inactive)');

Now examine the next entry.
Form field: reported GI50 of NCCCNC1(c2cc3ccccc3s2)CCCCC1
1.94 µM (inactive)

* * *

- Test system: UACC-62
- Assay Info: NCI tumour cell line growth inhibition, 48 h
Calls of active or inactive are those of the source. Cut-off read from the data, not from the text of the source: active = GI50 up to about 1.1 µM and inactive = higher.
Can you answer with just one of these options? 1 (yes) for active, 0 (no) for inactive

Example entries begin here.
INSERT INTO assay_data (molecule, answer_label) VALUES
  ('CN(c1nc(=[N+](C)C)ss1)C1CCCCC1', '0 (no)'),
  ('COc1cc(C)c2c(=O)c3ccccc3n(C)c2c1', '0 (no)'),
  ('O=c1c2sc3ccccc3sc=2c(=O)c2c(Cl)c(Cl)c(Cl)c(Cl)c12', '0 (no)'),
  ('O=C(NNc1ccccc1)c1ccc(Cl)c(Cl)c1', '1 (yes)');

Please share the test call associated with C(=N\c1ccc2c(c1)Cc1ccccc1-2)/c1ccccn1 .
0 (no)

Please share the test call associated with CCN(CC)CC(C)(C)C(=O)/C=C/c1ccc(C)cc1 .
0 (no)

Please share the test call associated with CCCCC1=CSC(c2ccccc2)=C(c2ccccc2)S1 .
0 (no)

Please share the test call associated with COc1ccn(CC(=O)c2cc3ccccc3[nH]2)c(=O)n1 .
0 (no)

Please share the test call associated with O=c1[nH]cc(NCCCl)c(=O)[nH]1 .
0 (no)

Please share the test call associated with O=C(CC(c1ccccc1)C1C(=O)NC(=S)NC1=O)c1ccc([N+](=O)[O-])cc1 (stereo unspecified) .
0 (no)

* * *

Attribute: GI50
- Test system: SNB-19
- Assay Info: NCI tumour cell line growth inhibition, 48 h
Calls of active or inactive are those of the source. No stated cut-off is given here; in the data, active = GI50 up to about 1.1 µM and inactive = higher.

INSERT INTO results (compound, quantity_kind, value_observed) VALUES
  ('N#CNC1=NC(CCCC(=O)Nc2cccc([N+](=O)[O-])c2)=C(c2nc3ccccc3[nH]2)C(N)N1 (stereo not given)', 'GI50', '> 100 µM (inactive)'),
  ('O=P(O)(OCC(O)O)OCC(O)O', 'GI50', '> 100 µM (inactive)'),
  ('COC(=O)c1cc2c(cc1CC(Cc1ccc3c(c1)CCCC3)C(=O)OC)CCCC2 (stereo not given)', 'GI50', '> 100 µM (inactive)');

Form field: reported GI50 of CC(=O)OC[C@]1(C(=O)C(O)c2ccoc2)[C@H](C)CC[C@@]23COC(=O)C2=CCC[C@@H]31 (stereo not given in full)
> 10 µM (inactive)

Form field: reported GI50 of O=C(NNc1ccccc1)c1ccc(Cl)c(Cl)c1
25.8 µM (inactive)

* * *

- System: HOP-92
- Assay Info: NCI tumour cell line growth inhibition, 48 h
Calls of active or inactive are those of the source. Cut-off read from the data, not from the text of the source: active = GI50 up to about 1.1 µM and inactive = higher.
Can you answer with just one of these options? yes for active, no for inactive

Example entries begin here.
INSERT INTO assay_data (compound, test_target, answer_label) VALUES
  ('C=CCC1(C)CCCN(Cc2ccccc2)C1=O (stereo not given)', 'HOP-92', 'no'),
  ('CCOC(=O)N1CCc2cc(OC)c(OC)c3c2C1CC3=O (stereo not given)', 'HOP-92', 'no'),
  ('CCOC(=O)C1=C(Nc2ccccc2)OC/C1=N\NC(=O)Cc1ccccc1', 'HOP-92', 'no'),
  ('O=S(=O)(c1ccc(Br)cc1)n1c2ccc(Br)cc2c2nc3ccccc3nc21', 'HOP-92', 'no'),
  ('COC1/C=C/C(C)C(C(C)C(OC)C(C)CCC(=O)C(C)C(C/C=C/N(C)C=O)OC)OC(=O)C=CC2OC2(C)CC(OC)C(OC)C2=CC(=O)O[C@@H](C(C)C(OC)CC(OC)/C=C/C(C)C(O)C1)[C@H]2O (stereo not given in full)', 'HOP-92', 'yes');

Please share the test call associated with O=C1N2CCc3c([nH]c4ccccc34)C23CC2CCCCC12S3 (stereo not given) .
no

Please share the test call associated with N#CC1Nc2ccccc2[C@@H](O)C1O (stereo not given in full) .
no

Please share the test call associated with O=C1NC(=O)C(CCC(=O)c2cccc3ccccc23)C(=O)N1 .
no

Please share the test call associated with CC1C=CC(=O)C(n2cc(F)c(=O)[nH]c2=O)O1 (stereo not given) .
no

Please share the test call associated with Cc1ccc2c(c1)/C(=N/Nc1ccccc1[N+](=O)[O-])C(=O)N2 .
no

* * *

- System: Hs-578T
- Assay Info: NCI tumour cell line growth inhibition, 48 h
The source made the active and inactive calls. No stated cut-off is given here; in the data, active = GI50 up to about 1.1 µM and inactive = higher.
Quantity Kind: GI50

INSERT INTO assay_data (molecule, quantity_kind, value_observed) VALUES
  ('CCC(=O)ONC(=O)Cn1ccc([N+](=O)[O-])n1', 'GI50', '> 100 µM (inactive)'),
  ('O=[N+]([O-])c1ccc(Nc2nc3ccccc3s2)cc1', 'GI50', '29.9 µM (inactive)'),
  ('Clc1ccc2c(NCCNc3ccnc4cc(Cl)ccc34)ccnc2c1', 'GI50', '31.9 µM (inactive)'),
  ('Cc1cc(O)nc2c3c(ccc12)OC(C)(C)C=C3', 'GI50', '3.52 µM (inactive)'),
  ('CC(C)C1=CC23CCC4C(C)(C(=O)O)CCCC4(C)C2CC1C1C(=O)N(c2ccc(Cc4ccc(N5C(=O)C6C7CC8C9(C)CCCC(C)(C(=O)O)C9CCC8(C=C7C(C)C)C6C5=O)cc4)cc2)C(=O)C13 (stereo not given)', 'GI50', '10.7 µM (inactive)');

Form field: reported GI50 of Cc1ccccc1N/C(N)=N/C#N
> 100 µM (inactive)

Form field: reported GI50 of COc1ccc(C(=O)c2[nH]c(Nc3ccc(Cl)cc3)c(C(=S)Nc3ccccc3)c2N)cc1
> 100 µM (inactive)

Form field: reported GI50 of CN(C)c1nc2sc3c(c2c(=O)o1)CCCC3
16.7 µM (inactive)

Form field: reported GI50 of O=C(O)c1ccc(S(=O)(=O)c2ccccc2[N+](=O)[O-])cc1
> 10 µM (inactive)

Form field: reported GI50 of O=C(O)Cc1ccc2nc(COC(=O)c3ccccc3)sc2c1
> 100 µM (inactive)

Form field: reported GI50 of Cc1ccc(C(=O)N/N=C(\N=N\c2cccc([N+](=O)[O-])c2)c2ccc(N(CCC#N)CCC#N)cc2C)cc1
23.4 µM (inactive)

Form field: reported GI50 of COc1ccc(/N=[N+](\[O-])c2ccc(OC)cc2)cc1
> 100 µM (inactive)

Form field: reported GI50 of O=C1NCc2ccccc2S(=O)(=O)n2cccc21
> 100 µM (inactive)

Form field: reported GI50 of C=CC(Br)(CBr)CCC(Cl)C(C)C (stereo not given)
2.58 µM (inactive)

Form field: reported GI50 of O=C(O)c1nn(-c2ccccc2)nc1-c1nn(-c2ccccc2)nc1C(=O)O
> 100 µM (inactive)

Form field: reported GI50 of Cc1ccccc1N(C)S(=O)(=O)c1ccccc1[N+](=O)[O-]
66.1 µM (inactive)

Form field: reported GI50 of COC1/C=C/C(C)C(C(C)C(OC)C(C)CCC(=O)C(C)C(C/C=C/N(C)C=O)OC)OC(=O)C=CC2OC2(C)CC(OC)C(OC)C2=CC(=O)O[C@@H](C(C)C(OC)CC(OC)/C=C/C(C)C(O)C1)[C@H]2O (stereo not given in full)
0.00448 µM (active)

Form field: reported GI50 of CSc1c(C#N)c(N)nc2c(/N=N\c3ccc(Cl)cc3)c(N)nn12
1.23 µM (inactive)

Form field: reported GI50 of COC(=O)Cc1cc(O)c(C/C=C(\C)CC/C=C(\C)C(O)C(=O)C=C(C)C)cc1O (stereo not given)
41 µM (inactive)

Form field: reported GI50 of CC1CC[C@@]2(OC1)OC1C[C@H]3[C@@H]4CC[C@H]5CC(OC6OC(CO)C(OC7OC(CO)C(O)C(O)C7OC7OC(CO)C(O)C(O)C7O)C(O)C6O)CCC5(C)[C@H]4CCC3(C)C1[C@@H]2C (stereo not given in full)
1.99 µM (inactive)
